These entries and their values trace back to patent US12577245B2.

Please respond with reported IC50 for every item in the list.
# System: RS4; 11Bcl-2-G101V cells
# Protocol Summary: CellTiter-Glo (CTG) cell viability assay in RS4;11-Bcl-2-G101V cells
# Type: cell-based
# Applied Conditions: 72 h, 10% FBS, 3 days
Numbers only, in nM.

Cc1ccc(C2=C(CN3CCN(c4ccc(C(=O)NS(=O)(=O)c5ccc(NCC6CCOCC6)c([N+](=O)[O-])c5)c(Oc5cnc6[nH]ccc6c5)c4)CC3)CCC(C)(C)C2)s1 [Example 6]    3940

For each of the items listed, what is its IC50?
1. CC1(C)CCC(CN2CCN(c3ccc(C(=O)NS(=O)(=O)c4ccc(NC[C@H]5COCCO5)c([N+](=O)[O-])c4)c(Oc4cnc5[nH]ccc5c4)c3)CC2)=C(c2cc3c(s2)CCN(c2ccc(F)cc2)C3)C1 [Example 15]
2. CC1(C)CCC(CN2CCN(c3ccc(C(=O)NS(=O)(=O)c4ccc(NC[C@H]5COCCO5)c([N+](=O)[O-])c4)c(Oc4cnc5[nH]ccc5c4)c3)CC2)=C(c2cc(-c3c(F)cc(C(C)(C)O)cc3F)cs2)C1 [Example 64]
3. CC1(C)CCC(CN2CCN(c3ccc(C(=O)NS(=O)(=O)c4ccc(NC[C@H]5CC[C@](C)(O)CC5)c([N+](=O)[O-])c4)c(Oc4cnc5[nH]ccc5c4)c3)CC2)=C(c2cc(-c3c(F)ccc(F)c3F)cs2)C1 [Example 54]
4. CC1(C)CCC(CN2CCN(c3ccc(C(=O)NS(=O)(=O)c4ccc(NC[C@H]5CC[C@@](C)(O)CC5)c([N+](=O)[O-])c4)c(Oc4cnc5[nH]ccc5c4)c3)CC2)=C(c2cc(CN3CCOCC3)cs2)C1 [Example 23]

[8810, 30, 270, 930]

* * *

# Tested on: RS4; 11Bcl-2-G101V cells
# Protocol Summary: CellTiter-Glo (CTG) cell viability assay in RS4;11-Bcl-2-G101V cells
# Assay type: cell-based
# Applied Conditions: 72 h, 10% FBS, 3 days
Experimental Endpoint: pIC50
Numbers only, as −log10 of the molar value.

Use these answered entries as a reference point.
CC1(C)CCC(CN2CCN(c3ccc(C(=O)NS(=O)(=O)c4ccc(NC[C@H]5COCCO5)c([N+](=O)[O-])c4)c(Oc4cnc5[nH]ccc5c4)c3)CC2)=C(c2cc(-c3ccc(Cl)cc3F)cs2)C1    6.08
CC(C)c1sccc1C1=C(CN2CCN(c3ccc(C(=O)NS(=O)(=O)c4ccc(NCC5CCOCC5)c([N+](=O)[O-])c4)c(Oc4cnc5[nH]ccc5c4)c3)CC2)CCC(C)(C)C1    5.63
CC1(C)CCC(CN2CCN(c3ccc(C(=O)NS(=O)(=O)c4ccc(NC[C@H]5CC[C@](C)(O)CC5)c([N+](=O)[O-])c4)c(Oc4cnc5[nH]ccc5c4)c3)CC2)=C(c2cc(-c3cc(F)c(F)cc3F)cs2)C1    6.37
CC1(C)CCC(CN2CCN(c3ccc(C(=O)NS(=O)(=O)c4ccc(NC[C@H]5CC[C@](C)(O)CC5)c([N+](=O)[O-])c4)c(Oc4cnc5[nH]ccc5c4)c3)CC2)=C(c2cc(-c3ccc(C(F)F)cc3)cs2)C1    6.38
CC(=O)NC(C)(C)c1cc(F)c(-c2csc(C3=C(CN4CCN(c5ccc(C(=O)NS(=O)(=O)c6ccc(NC[C@H]7CC[C@](C)(O)CC7)c([N+](=O)[O-])c6)c(Oc6cnc7[nH]ccc7c6)c5)CC4)CCC(C)(C)C3)c2)c(F)c1    6.38

For each of the items listed, what is its pIC50?
1. CC1(C)CCC(CN2CCN(c3ccc(C(=O)NS(=O)(=O)c4ccc(NC[C@H]5CC[C@](C)(O)CC5)c([N+](=O)[O-])c4)c(Oc4cnc5[nH]ccc5c4)c3)CC2)=C(c2cc(-c3ccc(C(C)(C)O)c(F)c3)cs2)C1
2. CC1(C)CCC(CN2CCN(c3ccc(C(=O)NS(=O)(=O)c4ccc(NC[C@H]5CC[C@](C)(O)CC5)c([N+](=O)[O-])c4)c(Oc4cnc5[nH]ccc5c4)c3)CC2)=C(c2cc(-c3ccc(F)cc3F)cs2)C1
3. CC1(C)CCC(CN2CCN(c3ccc(C(=O)NS(=O)(=O)c4ccc(NC[C@H]5COCCO5)c([N+](=O)[O-])c4)c(Oc4cnc5[nH]ccc5c4)c3)CC2)=C(c2cc(CN3CCC(N4CCOCC4)CC3)cs2)C1
4. CC1(C)CCC(CN2CCN(c3ccc(C(=O)NS(=O)(=O)c4ccc(NC[C@H]5CC[C@](C)(O)CC5)c([N+](=O)[O-])c4)c(Oc4cnc5[nH]ccc5c4)c3)CC2)=C(c2cc(-c3c(F)cc(C(C)(C)C(=O)O)cc3F)cs2)C1

1: 6.48; 2: 6.55; 3: 5.92; 4: 5.90
